# TESTED_ON: Mu-type opioid receptor (Homo sapiens) (UniProt P35372)
# Sequence (P35372 whole entry): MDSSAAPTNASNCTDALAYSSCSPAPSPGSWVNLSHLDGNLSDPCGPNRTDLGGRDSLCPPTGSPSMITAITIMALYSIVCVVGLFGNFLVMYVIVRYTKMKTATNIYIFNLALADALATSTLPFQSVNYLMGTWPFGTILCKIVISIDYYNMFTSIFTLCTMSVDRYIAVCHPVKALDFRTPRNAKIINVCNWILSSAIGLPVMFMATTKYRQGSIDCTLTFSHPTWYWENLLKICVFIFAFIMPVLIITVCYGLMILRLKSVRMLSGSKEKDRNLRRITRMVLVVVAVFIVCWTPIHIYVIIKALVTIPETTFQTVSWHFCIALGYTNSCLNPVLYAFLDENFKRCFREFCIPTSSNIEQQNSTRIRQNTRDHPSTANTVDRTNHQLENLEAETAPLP
# CONDITION_INFO: Compound concentration 10 µM
# Description: PDSP Primary Binding target: OPRM1 - Compounds are tested at 10 uM concentration, plate are incubated at room temperature in the dark for 90 minutes. Reaction are stopped by vacuum filtration onto 0.3% polyethyleneimine soaked filter mats using Filtermate harvester. Scintilation cocktail is then melted onto microwave-dried filters on a hot plate and the radio activity is counted in Microbia counter.
MEASURED_QUANTITY: inhibition

INSERT INTO results (smiles_code, measured_quantity, reported) VALUES
  ('Nc1nc(NCCc2ccc(O)cc2)nc2nc(-c3ccco3)nn12', 'inhibition', '0.03%'),
  ('FC(F)(F)c1cccc(-c2noc(-c3cc(-c4ccccc4)c(C(F)(F)F)s3)n2)c1', 'inhibition', '-7.64%'),
  ('CCCCCNC(=O)NS(=O)(=O)c1cc([N+](=O)[O-])ccc1NC1CCCCC1', 'inhibition', '26.7%');

Field: inhibition. Fill in for each record below.
1. CC(C)NC(=O)c1ccc(C#Cc2ccncc2)cn1
2. Cc1nc(C#Cc2ccnc(Cl)c2)c(C)n1-c1ccc(OC(F)(F)F)cc1
3. COc1ccnc(N2CCC3(CCCN(Cc4c[nH]c5ccccc45)C3=O)CC2)n1
4. Cc1cc(C(=O)N2Cc3cnn(C)c3Nc3ccccc32)ccc1CNC(=O)N1CCC[C@H]1C(=S)N1CCCN(C)CC1
5. Cc1c(F)cccc1NC(=O)Nc1ccc(Cl)c(S(=O)(=O)[C@H]2CCCNC2)c1O
6. OC1(c2ccc(Cl)cc2)CCN(Cc2c[nH]c3ccccc23)CC1
7. Cc1nc(C(=O)N2CCC[C@H]2Cc2nnc(-c3ccccc3)o2)c(-c2ccccc2F)s1

A.
1. 0.15%
2. 13.4%
3. -4.41%
4. 12.3%
5. -3.61%
6. 65%
7. 7.98%

Quick batch: inhibition for everything below.
1. COc1ccc2cc(S(=O)(=O)N[C@H](CC(=O)N[C@H](Cc3ccc(CN4[C@H](C)CCC[C@@H]4C)cc3)C(=O)N(C)C(C)C)c3ccc4c(c3)OCO4)ccc2c1
2. CCCCc1nc(Cl)c(CO)n1Cc1ccc(-c2ccccc2-c2nnn[nH]2)cc1

A.
1: 40%; 2: -1.17%

* * *

# TESTED_ON: 5-hydroxytryptamine receptor 1A (Homo sapiens) (UniProt P08908)
# Sequence (P08908 whole entry): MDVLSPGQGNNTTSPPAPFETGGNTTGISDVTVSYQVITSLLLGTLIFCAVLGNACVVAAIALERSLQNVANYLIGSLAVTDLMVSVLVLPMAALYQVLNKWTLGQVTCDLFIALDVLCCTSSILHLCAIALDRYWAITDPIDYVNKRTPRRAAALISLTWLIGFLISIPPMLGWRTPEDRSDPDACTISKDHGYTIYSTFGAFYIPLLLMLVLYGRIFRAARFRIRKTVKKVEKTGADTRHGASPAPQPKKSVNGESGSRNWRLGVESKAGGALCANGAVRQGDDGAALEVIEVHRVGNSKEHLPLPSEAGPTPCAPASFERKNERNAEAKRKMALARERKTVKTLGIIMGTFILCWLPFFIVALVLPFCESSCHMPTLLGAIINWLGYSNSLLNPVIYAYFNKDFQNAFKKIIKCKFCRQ
# CONDITION_INFO: Compound concentration 10 µM
# Description: PDSP Primary Binding target: HTR1A - Compounds are tested at 10 uM concentration, plate are incubated at room temperature in the dark for 90 minutes. Reaction are stopped by vacuum filtration onto 0.3% polyethyleneimine soaked filter mats using Filtermate harvester. Scintilation cocktail is then melted onto microwave-dried filters on a hot plate and the radio activity is counted in Microbia counter.
MEASURED_QUANTITY: inhibition (%)
Answers are plain numbers, in %.

The examples below pair each entry with its known result.
INSERT INTO results (smiles_code, reported) VALUES
  ('Cc1cc(C)cc(-c2cnc3cc(Cl)c(-c4cccc(O)c4)cc3c2OCCCN)c1', 64.1),
  ('COc1ccc(S(=O)(=O)N2c3ccc(Cl)cc3[C@](O)(c3ccccc3Cl)[C@@H]2C(=O)N2CCC[C@H]2C(N)=O)cc1OC', 8.75),
  ('Cc1cc(NC(=O)NCCN2CCC(O)(Cc3ccccc3)CC2)c2ccccc2n1', -6.82);

API: the following record is the query input.
Tested on 5-hydroxytryptamine receptor 1A (Homo sapiens) (UniProt P08908): Cc1ccc2c(c1)c1c(n2CCc2ccc(C)nc2)CCN(C)C1 . Observed inhibition: 39.1

* * *

# TESTED_ON: UniProt:Q01959
# Sequence (Q01959 whole entry): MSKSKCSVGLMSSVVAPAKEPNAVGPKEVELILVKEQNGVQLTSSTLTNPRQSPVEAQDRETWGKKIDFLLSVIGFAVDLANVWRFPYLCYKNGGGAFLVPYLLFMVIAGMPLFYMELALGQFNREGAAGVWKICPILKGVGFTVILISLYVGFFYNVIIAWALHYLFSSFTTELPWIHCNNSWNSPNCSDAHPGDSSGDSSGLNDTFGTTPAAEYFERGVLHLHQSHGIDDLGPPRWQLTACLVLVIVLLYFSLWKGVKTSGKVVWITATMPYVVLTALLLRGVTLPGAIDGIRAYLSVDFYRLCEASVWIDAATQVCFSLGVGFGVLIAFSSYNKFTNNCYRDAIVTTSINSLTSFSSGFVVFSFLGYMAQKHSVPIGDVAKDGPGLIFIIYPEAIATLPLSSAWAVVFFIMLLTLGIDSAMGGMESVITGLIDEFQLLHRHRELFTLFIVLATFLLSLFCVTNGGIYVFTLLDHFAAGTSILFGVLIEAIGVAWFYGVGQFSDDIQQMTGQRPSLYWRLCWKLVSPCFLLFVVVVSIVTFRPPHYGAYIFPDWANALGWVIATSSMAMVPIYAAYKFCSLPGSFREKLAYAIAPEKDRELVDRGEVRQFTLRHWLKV
# CONDITION_INFO: Compound concentration 10 µM
# Description: PDSP Primary Binding target: SLC6A3 - Compounds are tested at 10 uM concentration, plate are incubated at room temperature in the dark for 90 minutes. Reaction are stopped by vacuum filtration onto 0.3% polyethyleneimine soaked filter mats using Filtermate harvester. Scintilation cocktail is then melted onto microwave-dried filters on a hot plate and the radio activity is counted in Microbia counter.
Lab note: compare inhibition against 50%. Equal or greater, write True. Smaller, write False.

For orientation, consider the following solved cases.
INSERT INTO measurements (compound, tested_on, group_label) VALUES
  ('CN1C(=O)[C@@H](NC(=O)c2cc3ccccc3[nH]2)N=C(c2ccccc2)c2ccccc21', 'UniProt:Q01959', 'False'),
  ('N[C@H](C(=O)O)c1ccc(C(=O)O)c(C(=O)O)c1', 'UniProt:Q01959', 'False'),
  ('COc1ccc(CNC(=O)c2cc(-c3cncc(Cl)c3)cnc2-c2ccccn2)nc1OC', 'UniProt:Q01959', 'False');

Q. In plain terms: is recorded inhibition at least 50% for CC(C)NCC(O)COc1cccc2ccccc12 (stereo not drawn) ?
A. False

Q. Does the reported inhibition for CCOC(=O)c1c(C)[nH]c2ccc3c(c12)CN1CCc2cc(OC)ccc2C1O3 (stereo not drawn) fall at or above the 50% mark?
A. True

Q. Identify whether the reported inhibition of the following compound is 50% or greater: CCCn1c(=O)c2[nH]c(-c3cnn(Cc4cccc(C(F)(F)F)c4)c3)nc2n(CC)c1=O
A. False

Q. Would you say CN(C)C(=O)N[C@H]1CC[C@H](CCN2CCN(c3cccc(Cl)c3Cl)CC2)CC1 shows inhibition at minimum 50%?
A. True

Q. Textbook exercise: given the entry Cc1c(F)cccc1NC(=O)Nc1ccc(Cl)c(S(=O)(=O)[C@H]2CCCNC2)c1O , state whether its inhibition is greater than or equal to 50%.
A. False
